- Test Target: CYP 3A4 (Homo sapiens)
- Sequence (P08684 whole entry): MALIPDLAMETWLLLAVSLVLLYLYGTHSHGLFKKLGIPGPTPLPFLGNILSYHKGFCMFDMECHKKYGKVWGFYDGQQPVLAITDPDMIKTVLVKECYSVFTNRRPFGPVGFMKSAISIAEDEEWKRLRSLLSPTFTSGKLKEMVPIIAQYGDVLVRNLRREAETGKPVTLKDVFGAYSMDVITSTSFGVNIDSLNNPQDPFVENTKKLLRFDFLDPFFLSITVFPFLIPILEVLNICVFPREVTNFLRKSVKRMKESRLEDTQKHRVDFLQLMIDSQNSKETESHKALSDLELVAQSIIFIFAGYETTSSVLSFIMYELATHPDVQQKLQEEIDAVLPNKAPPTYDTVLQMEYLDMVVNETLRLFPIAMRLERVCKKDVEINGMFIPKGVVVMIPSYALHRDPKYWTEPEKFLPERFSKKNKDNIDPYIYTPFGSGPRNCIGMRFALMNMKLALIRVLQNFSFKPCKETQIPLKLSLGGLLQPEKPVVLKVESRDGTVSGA
Quantity Kind: IC50 (µM)

1. Cc1cc(C(=O)N2Cc3cnn(C)c3Nc3ccccc32)ccc1CNC(=O)N1CCC[C@H]1C(=S)N(C)C [LIT-001] = 11

###

- Protocol Summary: distribution and clearance after i.p. injection, LC-MS/MS
- Format: in vivo
- Test Settings: plasma, ip; rat, 10 mg/kg i.p., 300 min; read-out: concentration in plasma
Quantity Kind: concentration at 300 min (nM)

1. Cc1cc(C(=O)N2Cc3cnn(C)c3Nc3ccccc32)ccc1CNC(=O)N1CCC[C@H]1C(=S)N(C)C = 95.2

###

- Test Target: hERG (Homo sapiens)
- Sequence (Q12809 whole entry): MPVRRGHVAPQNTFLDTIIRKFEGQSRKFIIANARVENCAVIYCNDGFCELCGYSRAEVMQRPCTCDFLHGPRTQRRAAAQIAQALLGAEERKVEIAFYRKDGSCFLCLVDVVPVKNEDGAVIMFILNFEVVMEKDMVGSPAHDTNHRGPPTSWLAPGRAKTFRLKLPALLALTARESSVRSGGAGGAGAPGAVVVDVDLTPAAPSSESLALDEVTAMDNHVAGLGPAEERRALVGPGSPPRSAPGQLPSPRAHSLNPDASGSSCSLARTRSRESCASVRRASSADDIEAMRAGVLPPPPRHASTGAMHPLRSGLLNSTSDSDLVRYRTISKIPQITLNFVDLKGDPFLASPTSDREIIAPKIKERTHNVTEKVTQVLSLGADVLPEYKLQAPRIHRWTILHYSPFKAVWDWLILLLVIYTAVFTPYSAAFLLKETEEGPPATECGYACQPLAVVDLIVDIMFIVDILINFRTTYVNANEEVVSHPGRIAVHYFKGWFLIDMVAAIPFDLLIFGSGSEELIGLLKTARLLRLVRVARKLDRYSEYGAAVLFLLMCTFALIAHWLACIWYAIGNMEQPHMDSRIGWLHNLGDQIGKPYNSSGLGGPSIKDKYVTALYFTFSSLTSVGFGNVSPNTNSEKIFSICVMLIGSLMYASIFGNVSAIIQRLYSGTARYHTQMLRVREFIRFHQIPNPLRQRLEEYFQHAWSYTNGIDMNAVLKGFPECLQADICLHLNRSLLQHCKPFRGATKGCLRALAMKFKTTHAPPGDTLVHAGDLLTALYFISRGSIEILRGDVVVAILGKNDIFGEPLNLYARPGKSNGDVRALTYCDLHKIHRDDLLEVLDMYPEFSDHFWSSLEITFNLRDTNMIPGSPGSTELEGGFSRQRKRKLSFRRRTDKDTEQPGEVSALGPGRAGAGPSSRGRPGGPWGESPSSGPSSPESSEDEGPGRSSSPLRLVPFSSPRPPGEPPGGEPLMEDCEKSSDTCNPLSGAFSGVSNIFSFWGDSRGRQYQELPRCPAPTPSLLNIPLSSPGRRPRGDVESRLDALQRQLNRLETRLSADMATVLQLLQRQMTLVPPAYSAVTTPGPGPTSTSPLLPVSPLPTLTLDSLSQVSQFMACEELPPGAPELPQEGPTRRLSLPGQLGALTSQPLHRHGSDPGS
- Protocol Summary: hERG inhibition, patch clamp method
- Format: cell-based
- Test Settings: 1 μM
Quantity Kind: inhibition at 1 µM (%)

1. Cc1cc(C(=O)N2Cc3cnn(C)c3Nc3ccccc32)ccc1CNC(=O)N1CCC[C@H]1C(=S)N(C)C = 9.5
